Value source: PubChem BioAssay AID778

Biological target: Cytochrome P450 2C19 (Homo sapiens) (UniProt P33261)
Sequence (P33261 whole entry, looked up): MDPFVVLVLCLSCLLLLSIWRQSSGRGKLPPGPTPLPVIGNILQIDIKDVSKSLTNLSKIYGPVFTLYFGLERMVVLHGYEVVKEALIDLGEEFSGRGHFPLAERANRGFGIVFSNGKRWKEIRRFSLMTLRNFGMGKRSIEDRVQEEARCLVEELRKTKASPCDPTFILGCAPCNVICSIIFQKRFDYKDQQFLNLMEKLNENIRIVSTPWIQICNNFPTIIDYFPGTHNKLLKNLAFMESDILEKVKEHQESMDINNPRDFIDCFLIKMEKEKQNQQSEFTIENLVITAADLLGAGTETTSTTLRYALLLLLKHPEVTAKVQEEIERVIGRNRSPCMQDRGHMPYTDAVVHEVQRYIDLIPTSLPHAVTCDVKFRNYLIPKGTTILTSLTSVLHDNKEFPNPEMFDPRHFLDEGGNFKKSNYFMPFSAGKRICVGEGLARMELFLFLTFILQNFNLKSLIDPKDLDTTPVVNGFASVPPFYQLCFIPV
Assay: blockers of cytochrome P450 2C19 activity – biochemical, luminescence, ADME assay, primary screen (AID 778);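 note: plate controls were negative control wells for no effect and 2.5 mM tranylcypromine positive control for full effect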
Details: CYP2C19 Supersomes, luciferin-H EGE luminescence, 30 min; at 5 µM
The whole screen tested about 96,000 compounds, of which about 20,000 (21%) were called active.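 Rule for the calls: active = CYP2C19 inhibition above a set limit at 5 µM in the primary screen (cut at about 50% in these data); inactive = the rest.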 Not all results are given here.
Outcome (select one): active, inactive

Before answering, review these 5 worked examples.
molecule	classification
CCOC(=O)N1CCN(C(=O)CSc2nnc(-c3c[nH]c4ccccc34)n2CCOC)CC1	inactive
CCOC(=O)N1CCN(C(=O)COc2ccc(Br)cc2)CC1	active
Cc1ccc(NC(=O)NCC(c2cccnc2)N2CCOCC2)cc1 (stereo unspecified)	inactive
CCOC(=O)C1CCN(C(=O)COc2cc(C)c(Br)c(C)c2)CC1	active
CN1CCCC(OC(=O)COc2ccc(Br)cc2)C1 (stereo unspecified)	inactive

Next molecule, please.
Q) Tell me the recorded outcome of this test for "CCOC(=O)N1CCN(C(=O)CSc2ccc(Cl)cc2)CC1" .
A) active

====

Biological target: Cytochrome P450 2C19 (Homo sapiens) (UniProt P33261)
Test: blockers of cytochrome P450 2C19 activity – biochemical, luminescence, ADME assay, primary screen (AID 778)
Details: CYP2C19 Supersomes, luciferin-H EGE luminescence, 30 min; at 5 µM
Hit rate of the full screen: of about 96,000 compounds, about 20,000 (21%) were called active.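 Rule for the calls: active = CYP2C19 inhibition above a set limit at 5 µM in the primary screen (cut at about 50% in these data); inactive = the rest.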 Only a sample is shown.
Answer with one of the outcomes active, inactive

COc1ccc(CCNC(=O)CSc2nnc(-c3cccc(F)c3)o2)cc1OC active
COc1ccc(CCNC(=O)CSc2nc(C)nc3c2oc2ccccc23)cc1OC inactive
Cn1c(SCC(=O)NC2CCCCC2)nnc1-c1cc2ccccc2o1 inactive

Q) What did this assay record as the result for "COc1ccc(-c2nnc(SCC(=O)NC3CCCCC3)o2)cc1OC" ?
A) active

Q) Hey, what did the test say about "COc1ccccc1-c1nnc(SCC(=O)Nc2cc(C)on2)o1" ?
A) inactive

Q) Each compound tested received a call. Report the one for "COc1ccccc1-c1nnc(SCC(=O)Nc2ccccc2)o1" .
A) active

====

Target: Cytochrome P450 2C19 (Homo sapiens)
Experiment: blockers of cytochrome P450 2C19 activity – biochemical, luminescence, ADME assay, primary screen (AID 778)
Settings: CYP2C19 Supersomes, luciferin-H EGE luminescence, 30 min; at 5 µM; hits give high values
The campaign covered roughly 96,000 compounds. About 20,000 (21%) were called active. The list is a sample of the results.
readout_label: inhibition (%)
Field: numeric (%). Do not append units.

Q) Which measured inhibition belongs to "Cc1ccc(C(=O)N(CN2CCCC2=O)c2ccc(F)cc2)cc1" , tested on Cytochrome P450 2C19 (Homo sapiens)?
A) -14.3

Q) Item "Cc1occc1C(=O)NNC(=S)NCC(C)C" with Cytochrome P450 2C19 (Homo sapiens) - inhibition?
A) 74.6

Q) Request - read-out inhibition | tested on Cytochrome P450 2C19 (Homo sapiens) | molecule "Oc1ccc2nc(Cc3ccccc3)[nH]c2c1"
A) 23.6

Q) Could you share what inhibition was measured for "O=c1nc2s/c(=C\c3ccco3)c(=O)n2nc1Cc1ccccc1" , tested on Cytochrome P450 2C19 (Homo sapiens)?
A) -5.5

Q) GET /values?readout=inhibition&system=Cytochrome P450 2C19 (Homo sapiens)&item= "c1ccc2c(CSCc3nc4ccccc4[nH]3)cccc2c1"
A) 89.3

Q) What measured inhibition is associated with "O=c1/c(=C/c2ccc(CNS(=O)(=O)c3ccccc3)o2)sc2n1CCN=2" on Cytochrome P450 2C19 (Homo sapiens)?
A) 52.4

====

Target: Cytochrome P450 2C19 (Homo sapiens)
Assay: blockers of cytochrome P450 2C19 activity – biochemical, luminescence, ADME assay, primary screen (AID 778);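 note: plate controls were negative control wells for no effect and 2.5 mM tranylcypromine positive control for full effect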
Conditions: CYP2C19 Supersomes, luciferin-H EGE luminescence, 30 min; at 5 µM; hits give high values
The campaign covered roughly 96,000 compounds. About 20,000 (21%) were called active. Not all results are given here.
readout_label: inhibition (%)
I only need the number, in %, no unit after it.

Look over these answered cases.
molecule	assay_system	inhibition, %
O=C(Nc1ccccc1Cl)N1CCN(c2ccc3nncn3n2)CC1	Cytochrome P450 2C19 (Homo sapiens)	24.1
O=c1ccc2cc(S(=O)(=O)N3CCN(c4ccccc4)CC3)ccc2o1	Cytochrome P450 2C19 (Homo sapiens)	1.3
O=c1c2cc3c(=O)n(CC4CCCO4)c(=O)c3cc2c(=O)n1CC1CCCO1 (stereo unspecified)	Cytochrome P450 2C19 (Homo sapiens)	0.8
CS(=O)(=O)Nc1cccc(C2=NN(S(=O)(=O)c3ccccc3)C(c3cccs3)C2)c1 (stereo unspecified)	Cytochrome P450 2C19 (Homo sapiens)	72.2
COc1cccc2c(=O)n(CC(=O)N3CCCCCC3)ccc12	Cytochrome P450 2C19 (Homo sapiens)	56.9

Q) Which inhibition value is on record for O=C(O)C1C2C=CC(C2)C1C(=O)N1CCN(CCO)CC1 (stereo unspecified) ?
A) 1

Q) Would you mind telling me what inhibition value was observed for CCOC(=O)C(C)Oc1cccc2c(=O)n(CC(=O)N3CCc4ccccc43)ccc12 (stereo unspecified) ?
A) 8.2

Q) Could you share which inhibition value was measured for "CCc1cccc2c(C=C(C#N)C#N)cn(CC(=O)N3CCCCC3)c12" ?
A) -0.7

Q) inhibition for "Cc1cc(N2CCN(S(=O)(=O)c3ccc(C)c(C)c3)CC2)c2ccccc2n1" ?
A) 95.8

Q) Using the record for O=C(C1CCCO1)N1CCC(c2nc3ccccc3[nH]2)CC1 (stereo unspecified) , report its inhibition.
A) 20.9

Q) Given "CCCCCCSc1nsc(N)n1" , state its recorded inhibition.
A) 45.3

====

Biological target: Cytochrome P450 2C19 (Homo sapiens)
Assay: blockers of cytochrome P450 2C19 activity – biochemical, luminescence, ADME assay, primary screen (AID 778);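 note: plate controls were negative control wells for no effect and 2.5 mM tranylcypromine positive control for full effect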
Details: CYP2C19 Supersomes, luciferin-H EGE luminescence, 30 min; at 5 µM; hits give high values
The whole screen tested about 96,000 compounds, of which about 20,000 (21%) were called active. Not all results are given here.
readout_label: inhibition (%)
Report as a plain number; the unit % is understood.

molecule	inhibition (%)
CCOC(=O)N1CCN(C(=O)CN(C2CCCCC2)S(C)(=O)=O)CC1	-5.6
COc1ccc(NC2CC(=O)N(C)C2=O)cc1 (stereo unspecified)	-10.3
CCOC(=O)CSc1nnc(NC(=O)c2cccc(S(=O)(=O)N3CCCCC3)c2)s1	7.4
CCCSC(=S)NC1CCS(=O)(=O)C1 (stereo unspecified)	13.9
CCOC(=O)N1CCN(CC(=O)c2ccc3c(c2)CCN3)CC1	34.1
C=CCn1c(N)cc(=O)nc1SCC(=O)Nc1cccc2ccccc12	1
COc1ccc2c(c1)SC(C)CC2=O (stereo unspecified)	79.6
Cc1cccc(OCc2nnc(SCC(=O)N3CCN(C(=O)c4ccco4)CC3)n2C)c1C	1.1

Q) Please state recorded inhibition (tested on Cytochrome P450 2C19 (Homo sapiens)) of "CCn1c(CNc2ccc(OC)cc2)nnc1SCC(=O)c1ccc(OC)cc1"
A) 33.9

Q) Form: Entry = COc1ccc2c(c1)OC(O)(C(F)(F)C(F)F)CC2=O (stereo unspecified) | System = Cytochrome P450 2C19 (Homo sapiens) | inhibition = ____
A) 47.3

Q) # returns recorded inhibition (system: Cytochrome P450 2C19 (Homo sapiens)) for "CCOC(=O)C1=C(CC)Nc2ccccc2N=C1NC(=O)c1cccc(S(=O)(=O)N2CCCC2)c1"
A) 54.2

====

Target: Cytochrome P450 2C19 (Homo sapiens) (UniProt P33261)
Assay: blockers of cytochrome P450 2C19 activity – biochemical, luminescence, ADME assay, primary screen (AID 778);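 note: plate controls were negative control wells for no effect and 2.5 mM tranylcypromine positive control for full effect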
Settings: CYP2C19 Supersomes, luciferin-H EGE luminescence, 30 min; at 5 µM; hits give high values
The campaign covered roughly 96,000 compounds. About 20,000 (21%) were called active. Only a sample is shown.
readout_label: inhibition (%)
Give just the number in %; leave the unit off.

Q) Consider the compound "CCOC(=O)c1cc2n(c1N)-c1ccccc1C2=O" and give its measured inhibition.
A) 26.7

Q) For the compound "CCCCNC(=O)CCn1c(=S)[nH]c2cc3c(cc2c1=O)OCO3" , what inhibition is on record?
A) 41.9

Q) // lookup inhibition for "Cc1ccc(SCCC(=O)OCC(=O)Nc2ncc(Cl)cc2Cl)cc1"
A) 24

Q) Return reported inhibition; argument: "O=C(NCc1ccco1)c1ccc(Cn2c(=O)c3sccc3n(Cc3ccc(F)cc3)c2=O)cc1"
A) 79.8

Q) Given "O=C(NCc1ccco1)c1cc2sccc2n1Cc1ccc(F)cc1" , state its recorded inhibition.
A) 32.8

Q) Recorded inhibition of "CCCOC(=O)Nc1ccccc1C(N)=O" , please.
A) 5.8

Q) inhibition lookup needed for "COC(=O)c1sccc1NC(=O)c1cc(OC)c(OC)c(OC)c1" , thanks.
A) 5.1

Q) Which inhibition is listed for "N#Cc1c2c(c(N3CCN(CCO)CC3)n3c1nc1ccccc13)CCCC2" ?
A) 34.5

Q) Consider the compound shown here: "O=C(Cc1ccc(-n2c(=O)c3sccc3n(Cc3ccc(F)cc3)c2=O)cc1)NCc1ccco1" What is its recorded inhibition?
A) 49.5

Q) Look up inhibition: "Cc1ccc(Cl)cc1NC(=O)COC(=O)C1CCCCC1"
A) 32.1

Q) Value lookup for inhibition; key = "Cc1ccc(N(NC(=O)C(C)(C)O)C(=O)c2ccccc2)cc1C"
A) 14.9
